Reference source for all entries: patent US20250027068

study system: pooled human IgG
quantity measured: Enzyme Activity Endpoint Assay (purified): Fab'2 (ng/µL)

INSERT INTO measurements (protein, recorded_value) VALUES
  ('PRT-116 (protein) MRNATEAYNKATPTTITSVWTKGVTPPTPEQFRYNNEDVFHAPYKAHQGWYDITKTFNGKDNLLCGAATAGNMLHWWFDQNKTEIEAYLSKHPEKQKIIFNNQELFDLKAAIDTKDSQTNSQLFNYFRDKAFPNLSARQLGVMPDLVLDMFINGYYLNVFKTQSTDVNRPYQDKDKRGGIFDAVFTRGDQTKLLTARHDLKDKGLNEISDLIKQELTEGKALALSHTYANVRISHVINLWGADFNAEGNLEAIYVTDSDANASIGMKKYFVGVNSSGHVAISAKKIEGENIGAQVLGLFTLSSGKDIWQKLS', 510),
  ('PRT-160 (protein) MANQEIRYSEVTPYHVTTVWTDGVKPPTDFIKGEDVFHAPYKAHQGWYDITKTFNGKDDLLCGAATAGNMLHWWFDQNKDQIKRYLEEHPEKQKINFNGEQMFDVKEAIDTKNHQLDSKLFEYFKEKAFPYLSTKHLGVFPDHVIDMFINGYRLSLTNHGPTPVKEGSKDPRGGIFDAVFTRGDQSKLLTSRHDFKEKNLKEISDLIKKELQEGKALGLSHTYANVRINHVINLWGADFDSNGNLKAIYVTDSDSNASIGMKKYFVGVNSAGKVAISAKEIKEDNIGAQVLGLFTLSTGQDSWNQTN', 642);
